These entries and their values trace back to ChEMBL document CHEMBL4014264.

Test: Cytotoxicity against human KKU-M214 cells assessed as reduction in cell viability after 72 hrs by SRB assay
Type: functional, cell-based
Conditions: KKU-M214, 72 h
Experimental Readout: log10 IC50 (log10 of the value in µM)
Each number you see is log10 of IC50, and the unit inside the log is µM.

Here's what some known entries look like.
CCCCCCCCCCCCCCCC(=O)OC(C)(C)C(O)CC(O)/C(C)=C/COc1ccc(CCNC(=O)c2ccccc2)cc1 (racemic); 1.31
CC(=O)OC(CC1OC1(C)C)/C(C)=C/COc1ccc(CCNC(=O)c2ccccc2)cc1 (stereo not drawn); 1.50
C/C(=C\COc1ccc(CCNC(=O)c2ccccc2)cc1)C1CC(O)C(C)(C)O1 (racemic); 0.87
CCCCCCCCCCCCCCCC(=O)OC(CC(O)C(C)(C)O)/C(C)=C/COc1ccc(CCNC(=O)c2ccccc2)cc1 (racemic); 1.44
CCCCCCCCCCCCCCCC(=O)OC(CC(OC(C)=O)C(C)(C)O)/C(C)=C/COc1ccc(CCNC(=O)c2ccccc2)cc1 (racemic); 0.49
CC(=O)OC(CC(O)C(C)(C)O)/C(C)=C/COc1ccc(CCNC(=O)c2ccccc2)cc1 (stereo not drawn); 1.65

Request the reported log10 IC50 associated with C/C(=C\COc1ccc(CCNC(=O)c2ccccc2)cc1)C(O)CC(O)C(C)(C)O (stereo not drawn)
1.05

Same read-out for CCCCCCCCCCCCCCCCCC(=O)OC(CC(OC(C)=O)C(C)(C)O)/C(C)=C/COc1ccc(CCNC(=O)c2ccccc2)cc1 (racemic) ?
1.09
